Some molecules, each annotated with its measured pIC50.
- Test system: HCV replicon
- protocol_notes: HCV replicon luciferase reporter assay
- Assay type: cell-based
- condition_notes: Hepatitis C virus, Table 5; read-out: IC50
pIC50: −log10 of the molar value.

Please review the entries below; each comes with its answer.
molecule	system_name	pIC50
O=S(=O)(NCCCNc1nsc2ccccc12)c1ccc(Br)s1 [Entry 222]	HCV replicon	> 5.30
O=C(NCCNc1nsc2ccccc12)C1CCCNC1 (stereo not drawn) [Entry 73]	HCV replicon	< 5.30
CCCCOc1cc(C(=O)NCCNc2nsc3ccc(NCCC)cc23)ccc1OC [Compound 310]	HCV replicon	> 5.30
O=S(=O)(NCCCNc1nsc2ccccc12)c1cc(C(F)(F)F)cc(C(F)(F)F)c1 [Compound 246]	HCV replicon	> 5.30
O=S(=O)(NCCCNc1nsc2ccccc12)c1cc(F)c(Br)cc1F [Entry 221]	HCV replicon	> 5.30
COc1ccc(Cl)cc1-c1ccc(CNCCCNc2nsc3ccccc23)cc1 [Compound 294]	HCV replicon	> 5.30
COc1ccc(-c2cccc(C(=O)NCCCNc3nsc4ccccc34)n2)c(OC)c1 [Compound 438]	HCV replicon	> 5.30
O=C(NCCNc1nsc2ccccc12)c1cc(-c2ccccc2)n[nH]1 [Compound 413]	HCV replicon	< 5.30

Task: Fill in pIC50 for record O=S(=O)(NCCCNc1nsc2ccccc12)c1ccc(Oc2ccc(Cl)cc2)cc1 [Entry 223]
Result: > 5.30

----------
Some molecules, each annotated with its measured IC50.
- Tested on: HCV replicon
- protocol_notes: HCV replicon luciferase reporter assay
- Format: cell-based
- condition_notes: Hepatitis C virus, Table 5; read-out: IC50
- Text: The inhibitory activity of certain exemplary compounds of the invention was confirmed using an HCV replicon assay. The HCV replicon can include such features as the HCV IRES, the HCV 3′ untranslated region, selected HCV genes encoding HCV polypeptides, selectable markers, and a reporter gene such as luciferase, GFP, etc. […] The cells were harvested, and HCV replication or translation was monitored via a reporter assay, e.g., a luciferase reporter assay. […]

1) Oc1ccc(Br)cc1CNCCCNc1nsc2ccccc12 < 5 µM

Task: Fill in IC50 for record COc1ccc(-c2ccc(CNCCCNc3nsc4ccc(Br)cc34)cc2)cc1
Result: < 5 µM

Task: Fill in IC50 for record COC(=O)c1ccc(-c2ccc(S(=O)(=O)NCCCNc3nsc4ccccc34)cc2)cc1
Result: < 5 µM

Task: Fill in IC50 for record O=S(=O)(NCCCNc1nsc2ccccc12)c1ccc(I)cc1
Result: < 5 µM

----------
- System: HCV replicon
- protocol_notes: HCV replicon luciferase reporter assay
- Assay type: cell-based
- condition_notes: Hepatitis C virus, Table 5; read-out: IC50
pIC50: −log10 of the molar value.
Some compounds, each annotated with its measured pIC50.

compound	system_name	value_measured
O=C(NCCCNc1nsc2ccccc12)c1cccc(I)c1	HCV replicon	> 5.30
O=S(=O)(NCCCNc1nsc2ccccc12)c1ccc(Br)cc1Cl	HCV replicon	> 5.30
COc1ccc(-c2ccc(CNCCCNC3=NS(=O)(=O)c4ccccc43)cc2)cc1	HCV replicon	< 5.30
CCN1CCN(c2ccc(C(=O)NCCCNc3nsc4ccccc34)cc2)CC1	HCV replicon	> 5.30
O=C(NCCCNc1nsc2ccccc12)Nc1ccc(I)cc1	HCV replicon	> 5.30
FC(F)(F)c1ccc(NCCCNc2nsc3ccccc23)nc1	HCV replicon	> 5.30
COc1ccc(-c2ccc(C(=O)NCCCNc3nsc4cccc(S(N)(=O)=O)c34)cc2)cc1	HCV replicon	< 5.30
CC1=NN(c2ccc(C(=O)NCCNc3nsc4ccccc34)cc2)C(=O)C1	HCV replicon	< 5.30

Task: Given O=C1NC(CNc2nsc3ccccc23)C(=O)N1c1ccc(I)cc1 (stereo not drawn) , report its pIC50 on HCV replicon.
Result: < 5.30

Task: Given FC(F)(F)c1ccccc1CNCCCNc1nsc2ccccc12 , report its pIC50 on HCV replicon.
Result: > 5.30

Task: Given O=S(=O)(NCCCNc1nsc2ccccc12)c1ccc(C(F)(F)F)cc1 , report its pIC50 on HCV replicon.
Result: > 5.30

----------
Some compounds, each annotated with its measured IC50.
- System: HCV replicon
- protocol_notes: HCV replicon luciferase reporter assay
- Assay type: cell-based
- condition_notes: Hepatitis C virus, Table 5; read-out: IC50

Please review the entries below; each comes with its answer.
1) O=S(=O)(NCCCNc1nsc2ccccc12)c1ccc(-c2ccc(OC(F)(F)F)cc2)cc1 < 5 µM
2) Cc1ccc(-c2cccc(C(=O)NCCNc3nsc4ccccc34)c2)cc1C < 5 µM
3) O=C(NCCCNc1nsc2ccccc12)c1ccc(OCCN2CCOCC2)c(Br)c1 < 5 µM
4) COc1ccc(OC)c(-c2cccc(C(=O)NCCCNc3nsc4ccccc34)c2)c1 < 5 µM
5) COc1ccc(-c2ccc(C(=O)NCCCNc3nsc4cccc(C(F)(F)F)c34)cc2)cc1 > 5 µM
6) O=C(NCCNc1nsc2ccccc12)c1cccc(Br)n1 > 5 µM
7) O=C(c1ccccc1)c1cccnc1C(=O)NCCNc1nsc2ccccc12 < 5 µM
8) COc1ccc(-c2ccc(CNCCCNc3nsc4ccccc34)cc2)cc1 < 5 µM

Now consider a different compound.
Task: Fill in IC50 for record CC(C)Oc1ccccc1-c1cccc(C(=O)NCCCNc2nsc3ccccc23)c1
Result: < 5 µM

----------
- System: HCV replicon
- protocol_notes: HCV replicon luciferase reporter assay
- Assay type: cell-based
- condition_notes: Hepatitis C virus, Table 5; read-out: IC50
Some compounds, each annotated with its measured IC50.

Please review the entries below; each comes with its answer.
compound	IC50
c1ccc2c(NCCNc3nsc4ccccc34)nsc2c1	> 5 µM
CC(C)NC(=O)c1cccc(C(=O)NCCNc2nsc3ccccc23)c1	< 5 µM
COc1cccc(-c2ccc(C(=O)NCCNc3nsc4ccccc34)cc2)c1OC	< 5 µM
N#Cc1ccc(NCCCNc2nsc3ccccc23)nc1	< 5 µM
O=C(NCCCNc1nsc2ccccc12)c1ccc(Br)cc1	< 5 µM

Task: Given O=C(NCCNc1nsc2ccccc12)c1ccc(-c2ccccc2O)cc1 , report its IC50 on HCV replicon.
Result: < 5 µM

Task: Given O=[N+]([O-])c1cccc(S(=O)(=O)NCCCNc2nsc3ccccc23)c1 , report its IC50 on HCV replicon.
Result: < 5 µM

Task: Given O=C(NCCNc1nsc2ccccc12)c1ccc(C(F)(F)F)cc1C(F)(F)F , report its IC50 on HCV replicon.
Result: < 5 µM

Task: Given CC(C)(C)OC(=O)N1CCCC(C(=O)NCCNc2nsc3ccc(Cl)cc23)C1 (stereo not shown) , report its IC50 on HCV replicon.
Result: < 5 µM

Task: Given O=C(NCCNc1nsc2ccccc12)c1ccccc1C(F)(F)F , report its IC50 on HCV replicon.
Result: < 5 µM

Task: Given O=C(NCCNc1nsc2ccccc12)c1cc(F)ccc1C(F)(F)F , report its IC50 on HCV replicon.
Result: > 5 µM

Task: Given O=C(NCCNc1nsc2ccccc12)c1c(Cl)cccc1Cl , report its IC50 on HCV replicon.
Result: > 5 µM

Task: Given O=C(NCCNc1nsc2ccccc12)c1cccc(C(=O)NC2CC2)c1 , report its IC50 on HCV replicon.
Result: < 5 µM

----------
- Test system: HCV replicon
- protocol_notes: HCV replicon luciferase reporter assay
- Assay type: cell-based
- condition_notes: Hepatitis C virus, Table 5; read-out: IC50
Some compounds, each annotated with its measured IC50.

compound	IC50
O=C(NCCCNc1nsc2ccccc12)c1ccc(OCc2ccncc2)cc1 [Entry 235]	< 5 µM

Task: Given CCCCc1ccc(CN(CCCNc2nsc3ccccc23)C(=O)c2ccccn2)cc1 [Compound 293] , report its IC50 on HCV replicon.
Result: < 5 µM

Task: Given O=S(=O)(c1ccc(CNCCCNc2nsc3ccccc23)cc1)N1CCCC1 [Compound 260] , report its IC50 on HCV replicon.
Result: > 5 µM

Task: Given COc1ccc(COc2ccc(C(=O)NCCCNc3nsc4ccccc34)cc2)cc1OC [Entry 237] , report its IC50 on HCV replicon.
Result: < 5 µM

Task: Given O=C(NCCCNc1nsc2ccccc12)c1cccc(OCC(O)CN2CCOCC2)c1 (centres unmarked) [Entry 232] , report its IC50 on HCV replicon.
Result: < 5 µM

----------
- System: HCV replicon
- protocol_notes: HCV replicon luciferase reporter assay
- Type: cell-based
- condition_notes: Hepatitis C virus, Table 5; read-out: IC50
Some compounds, each annotated with its measured IC50.

Please review the entries below; each comes with its answer.
1) COc1ccc(OC)c(S(=O)(=O)NCCCNc2nsc3ccccc23)c1 < 5 µM
2) CCCNC(=O)c1cccc(C(=O)NCCNc2nsc3ccccc23)c1 < 5 µM
3) O=C(NCCNc1nsc2ccccc12)c1c(F)cccc1C(F)(F)F > 5 µM
4) COc1ccc(-c2cccc(CNCCCNc3nsc4ccccc34)c2)cc1 < 5 µM
5) Cc1ccnc(NCCCNc2nsc3ccccc23)c1 < 5 µM
6) COc1ccc(-c2ccc(CN(CCCNc3nsc4ccccc34)C(=O)N3CCOCC3)cc2)cc1 < 5 µM
7) O=C(NCCNc1nsc2ccccc12)c1cccc(CO)c1 > 5 µM
8) O=C(CC1CC1)NCCNc1nsc2ccccc12 > 5 µM

Task: Fill in IC50 for record COC(=O)c1cnc(NCCCNc2nsc3ccccc23)cc1C(F)(F)F
Result: < 5 µM
